From: the METLIN SMRT retention time set (Domingo-Almenara et al. 2019)

# reported RP-LC retention time; entries follow
Assay: gradient 5% acetonitrile 3 min, to 50% in 2 min, to 85% in 15 min, held 3 min, 100 µL/min
Settings: column: Zorbax Extend-C18 2.1 x 50 mm; eluents: water / acetonitrile, 0.1% formic acid

MOLECULE	ENDPOINT_UNIT	RP-LC retention time
COc1cc(CNC(=O)c2cn3ccc(C)cc3n2)cc(OC)c1	s	632
CN1C(=O)Cc2cc(NC(=O)c3ccno3)ccc21	s	586
CCn1cc(S(=O)(=O)N2CC3(CCCCC3)CC2COc2ccc(OC)cc2)cn1 (stereo not given)	s	1090
CN1CCN(Cc2nc(-c3ccc(N(C)Cc4ccccc4)nc3)no2)CC1	s	638
Cc1cc(=O)n2nc(-c3ccc(Cl)cc3)nc2n1CC(=O)N1CCN(c2ccc(F)cc2)CC1	s	933
